Molecular target: recombinant human NPY Y2 receptors (Homo sapiens, UniProt P49146)
Construct: expressed in transfected cells; host or cells: CHO-C4 cells (membrane preparation)
Sequence (P49146 1-381): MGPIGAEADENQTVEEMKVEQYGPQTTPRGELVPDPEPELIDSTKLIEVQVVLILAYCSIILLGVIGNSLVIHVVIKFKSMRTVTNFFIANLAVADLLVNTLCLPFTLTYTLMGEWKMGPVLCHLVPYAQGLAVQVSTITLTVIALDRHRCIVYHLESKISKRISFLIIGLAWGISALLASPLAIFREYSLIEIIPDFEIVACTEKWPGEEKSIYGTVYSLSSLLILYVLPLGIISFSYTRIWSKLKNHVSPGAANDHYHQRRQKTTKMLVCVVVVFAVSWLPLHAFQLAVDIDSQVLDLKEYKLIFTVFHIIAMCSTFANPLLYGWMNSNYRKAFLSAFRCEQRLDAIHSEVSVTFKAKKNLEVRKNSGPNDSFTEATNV
Test: Scintillation proximity [35S]GTPγS binding assay (inhibition of 0.5 nM NPY-stimulated [35S]GTPγS binding)
Type: biochemical
Settings: 10 μM compound, membranes from CHO-C4 cells expressing recombinant human NPY Y2 receptors, read-out: [%] inhibiton at 10 μM
Description: Preparation of Membranes: CHO-C4 cells expressing recombinant human NPY Y2 receptors were used to prepare membranes for the GTPγS assay. Cells were grown to 80-95% confluency on 15-cm (225 cm^2) tissue culture plates. […] Scintillation proximity [^35S]GTPγS binding assay: Frozen membranes from CHO-C4 cells expressing recombinant human NPY Y2 receptors (2 mg for four 96-well plates) were thawed on ice. […] After 60 min the plates were counted in a TopCount (Canberra). […]
Experimental endpoint: inhibition at 10 µM (%)

Which value of inhibition at 10 µM has been reported for Cc1noc(C)c1NC(=O)Nc1ccc(N2CCC(C(c3ccccc3)c3ccccc3)CC2)c(C#N)c1 [Compound 13] in the records? 91

Request the reported inhibition at 10 µM associated with Cc1noc(C)c1NC(=O)Nc1ccc(N2CCC(C(c3ccccc3)c3ccccc3)CC2)c(F)c1 [Compound 16] 90

Sample CCC(CC)C(=O)Nc1ccc(N2CCN(C(c3ccccn3)[C@H]3CCCO3)CC2)c(F)c1 (some centres unmarked) [Compound 25] — what was its inhibition at 10 µM? 90

Item CCC(CC)C(=O)Nc1ccc(N2CCN(C(c3ccccc3)c3ccccc3)CC2)c(F)c1 [Compound 6] has what recorded inhibition at 10 µM? 89

// query inhibition at 10 µM value for entry N#Cc1cc(NC(=O)C2CCOC2)ccc1N1CCN(C(c2ccccc2)c2ccccc2)CC1 (centres unmarked) [Compound 2] 89
